- measurement protocol: Solubility test of the crystal form in different solvents
- Type: physicochemical
- test settings: 25 °C, organic solvent or mixture, thermodynamic from solid; N-Methylpyrrolidone, 25±2° C.; read-out: Solubility classification
metric name: solubility at 30 min

I would be grateful if you could share the reported solubility at 30 min for "Cc1cnn2c1-c1cc(C(=O)N[C@H](CN)Cc3cccc(F)c3)sc1CCC2.O=C(O)/C=C\C(=O)O" .
100 to 1000 mg/mL

====

- measurement protocol: Solubility test of the crystal form in different solvents
- Format: physicochemical
- test settings: 25 °C, thermodynamic from solid; Water, 25±2° C.; read-out: Solubility classification
metric name: solubility at 30 min

Value lookup for solubility at 30 min; key = "Cc1cnn2c1-c1cc(C(=O)N[C@H](CN)Cc3cccc(F)c3)sc1CCC2.O=C(O)/C=C\C(=O)O"
< 100 µg/mL

====

- Test system: prostate cancer cell LNCaP overexpressing AKT
- measurement protocol: Cytoactive test, cell proliferation (CellTiter-Glo)
- Assay type: cell-based
- test settings: Homo sapiens, 72 h, 3 days, read-out: IC50 of inhibition on cell proliferation
metric name: pIC50
Formally, pIC50 is defined as -log10 of the concentration c, with c in mol/L.

For the record "Cc1cnn2c1-c1cc(C(=O)N[C@H](CN)Cc3cccc(F)c3)sc1CCC2.O=C(O)/C=C\C(=O)O" , what value of pIC50 is listed for prostate cancer cell LNCaP overexpressing AKT?
7.17

====

- measurement protocol: Solubility test of the crystal form in different solvents
- Type: physicochemical
- test settings: 25 °C, organic solvent or mixture, thermodynamic from solid; Dimethyl sulfoxide, 25±2° C.; read-out: Solubility classification
metric name: solubility at 30 min

Requested read-out: solubility at 30 min. Entry: "Cc1cnn2c1-c1cc(C(=O)N[C@H](CN)Cc3cccc(F)c3)sc1CCC2.O=C(O)/C=C\C(=O)O"
100 to 1000 mg/mL

Just for reference, patent US11261196B2 is where these values come from.
